- METHOD DESCRIPTION: Inhibition of human CDC7/ASK using FITC-labelled MCM2 substrate in presence of 1 mM of ATP
pIC50: −log10 of the molar value.
OUTCOME MEASURE: pIC50

**Query** Which pIC50 reading was recorded for the molecule CCOC(=O)C1=C(N2CCN(CCO)CC2)O/C(=C\c2c[nH]c3ncccc23)C1=O ?
**Result** 5.22

**Query** Which pIC50 reading was recorded for the molecule CCOC(=O)C1=C(NN2CCCCCC2)O/C(=C\c2c[nH]c3ncccc23)C1=O ?
**Result** 6.35

**Query** Which pIC50 reading was recorded for the molecule CCOC(=O)C1=C(NN2CCN(CCO)CC2)O/C(=C\c2c[nH]c3ncccc23)C1=O ?
**Result** 6.27

[a] CCOC(=O)C1=C(NN2CCOCC2)O/C(=C\c2c[nH]c3ncccc23)C1=O
[b] CCOC(=O)C1=C(NN2CCN(C)CC2)O/C(=C\c2c[nH]c3ncccc23)C1=O
**Query** I'd appreciate it if you could identify which of a and b has the greater pIC50. Provide the label of your selected option as the answer.
**Result** a
(a: 6.44, b: 5.97)

* * *

- TESTED SYSTEM: Serine/threonine-protein kinase pim-1 (Homo sapiens)
- Sequence (P11309 whole entry): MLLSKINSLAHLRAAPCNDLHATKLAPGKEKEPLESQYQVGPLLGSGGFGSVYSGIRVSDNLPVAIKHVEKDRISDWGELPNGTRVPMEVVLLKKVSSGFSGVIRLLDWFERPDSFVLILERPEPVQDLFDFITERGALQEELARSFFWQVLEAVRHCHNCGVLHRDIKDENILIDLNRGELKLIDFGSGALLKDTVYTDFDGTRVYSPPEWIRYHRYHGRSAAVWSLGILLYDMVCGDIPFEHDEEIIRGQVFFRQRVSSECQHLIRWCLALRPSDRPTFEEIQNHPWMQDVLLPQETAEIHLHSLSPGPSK
- METHOD DESCRIPTION: Inhibition of PIM1 (unknown origin) in presence of 1 mM ATP with preincubation
OUTCOME MEASURE: pIC50
Give only the number. pIC50 is defined as minus log10 of concentration in molar units.

**Query** Which pIC50 reading was recorded for the compound CCOC(=O)C1=C(NN2CCN(CC(F)(F)F)CC2)O/C(=C\c2c[nH]c3ncccc23)C1=O ?
**Result** 7.47

* * *

- METHOD DESCRIPTION: Half life in dog at 2 mg/kg, po
- Format: ADME, organism-based, Canis lupus familiaris
- RUN PARAMETERS: in vivo
OUTCOME MEASURE: half-life (min)
The response must be a number in min with no trailing unit.

**Query** Which half-life reading was recorded for the compound CCOC(=O)C1=C(NN2CCN(CC(F)(F)F)CC2)O/C(=C\c2c[nH]c3ncccc23)C1=O ?
**Result** 251

* * *

- METHOD DESCRIPTION: Volume of distribution in dog at 1 mg/kg, iv
- Assay type: ADME, organism-based, Canis lupus familiaris
- RUN PARAMETERS: in vivo
OUTCOME MEASURE: Vd (L/kg)
The response must be a number in L/kg with no trailing unit.

**Query** Which Vd reading was recorded for the molecule CCOC(=O)C1=C(NN2CCN(CC(F)(F)F)CC2)O/C(=C\c2c[nH]c3ncccc23)C1=O [MONZOSERTIB] ?
**Result** 4.22

* * *

- METHOD DESCRIPTION: Volume of distribution in mouse at 1 mg/kg, iv
- Format: ADME, organism-based
- RUN PARAMETERS: in vivo
OUTCOME MEASURE: Vd (L/kg)
The response must be a number in L/kg with no trailing unit.

**Query** Which Vd reading was recorded for the molecule CCOC(=O)C1=C(NN2CCN(CC(F)(F)F)CC2)O/C(=C\c2c[nH]c3ncccc23)C1=O ?
**Result** 3.1

* * *

- TESTED SYSTEM: Glycogen synthase kinase-3 alpha (Homo sapiens, UniProt P49840)
- Sequence (P49840 whole entry): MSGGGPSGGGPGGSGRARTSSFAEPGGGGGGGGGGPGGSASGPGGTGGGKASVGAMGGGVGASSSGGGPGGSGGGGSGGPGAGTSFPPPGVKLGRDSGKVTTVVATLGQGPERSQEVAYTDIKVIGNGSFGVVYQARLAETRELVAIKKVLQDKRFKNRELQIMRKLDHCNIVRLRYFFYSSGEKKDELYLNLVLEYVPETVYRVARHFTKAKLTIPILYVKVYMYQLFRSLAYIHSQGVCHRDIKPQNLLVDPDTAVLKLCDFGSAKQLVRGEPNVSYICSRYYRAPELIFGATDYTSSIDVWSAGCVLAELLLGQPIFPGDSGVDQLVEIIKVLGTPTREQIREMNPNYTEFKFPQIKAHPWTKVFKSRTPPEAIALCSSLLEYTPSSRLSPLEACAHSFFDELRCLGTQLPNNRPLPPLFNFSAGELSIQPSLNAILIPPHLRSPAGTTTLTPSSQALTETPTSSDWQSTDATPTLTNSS
- METHOD DESCRIPTION: Inhibition of GSK3alpha (unknown origin) in presence of 1 mM ATP with preincubation
OUTCOME MEASURE: IC50 (nM)
The response must be a number in nM with no trailing unit.

**Query** Which IC50 reading was recorded for the molecule CCOC(=O)C1=C(NN2CCN(CC(F)(F)F)CC2)O/C(=C\c2c[nH]c3ncccc23)C1=O ?
**Result** 251

The measurements presented in this section are drawn from ChEMBL document CHEMBL4828769.
